- Tested on: DLD-1 colon
- assay.details: NCI tumour cell line growth inhibition, 48 h
Property: TGI; scope: individual molecules

{"molecule": "CCCCCCc1cn([C@H]2C[C@H](O)[C@@H](CO)O2)c(=O)[nH]c1=O", "TGI": "> 100 µM"}
{"molecule": "Cc1c(N)nc(C(CC(N)=O)NCC(N)C(N)=O)nc1C(=O)NC(C(=O)NC(C)C(O)C(C)C(=O)NC(C(=O)NCCc1nc(-c2nc(C(=O)NCCCNCCCCN)cs2)cs1)C(C)O)C(OC1OC(CO)C(O)C(O)C1OC1OC(CO)C(O)C(OC(N)=O)C1O)c1cnc[nH]1 (centres undefined)", "TGI": "> 10 µM"}
{"molecule": "CC1OC=CC(=O)C1O (centres undefined)", "TGI": "> 100 µM"}
{"molecule": "O=C1C2=C(c3ccccc31)C(c1ccc(F)cc1)N1C(=O)CCSC1=N2 (centres undefined)", "TGI": "> 100 µM"}
{"molecule": "Nc1ccc(-c2nc3ccccc3s2)cc1", "TGI": "77.3 µM"}
{"molecule": "CCOC(=O)NC(=O)c1cn(C2OC(CO)C(O)C2O)c(=O)[nH]c1=O (centres undefined)", "TGI": "> 100 µM"}
{"molecule": "CC(=O)O[C@H]1C(=O)[C@@]2(C)C(C(OC(=O)c3ccccc3)[C@]3(O)CC(OC(=O)C(O)C(NC(=O)c4ccccc4)c4ccc(C)cc4)C(C)=C1C3(C)C)[C@]1(OC(C)=O)CO[C@@H]1C[C@@H]2O (some centres undefined)", "TGI": "> 25 µM"}
{"molecule": "CC1=NN(C(=O)c2cc(Cl)cc([N+](=O)[O-])c2)C(=O)C1N=Nc1ccccc1C(=O)O (centres undefined)", "TGI": "> 100 µM"}

Please look at the following molecule next.
stdin: State TGI (DLD-1 colon) of `COC(=O)c1nn(C(=N)c2ccc(Cl)cc2)c2c1CCCCC2` .
stdout: > 100 µM

* * *

- Tested on: MOLT-4 leukemia
- assay.details: NCI tumour cell line growth inhibition, 48 h; in the data active = GI50 below about 0.43 µM; inactive = the rest
Respond only with the outcome that fits, drawn from Yes (active), No (inactive)

stdin: Dear all, I need the recorded test outcome for `NC1CCCCC1N.O=S(=O)([O-])CCCN1CCN(CCO)CC1.O=S(=O)([O-])CCCN1CCN(CCO)CC1.[Pt+4]` , thank you.
stdout: No

stdin: Write down the call the test reported for this molecule. Item: `CS(=O)(=O)Nc1cc(-c2ccc3ncnc(Nc4cccc(Cl)c4F)c3c2)cnc1Cl`
stdout: No

stdin: Status in this test for `CC[C@H](C)[C@H](NC(=O)c1nccn1C)C(=O)N(C)[C@H](C[C@@H](OC(C)=O)c1nc(C(=O)N[C@@H](Cc2ccccc2)C[C@H](C)C(=O)OC)cs1)C(C)C` ?
stdout: No

stdin: How was `N#Cc1ncc(N2C(=O)C3(CCC3)N(c3ccc(OC4CCNCC4)nc3)C2=S)cc1C(F)(F)F` classified in this test?
stdout: No

stdin: Dear colleague, could you share the recorded outcome for `O=C(Nc1cccc([N+](=O)[O-])c1)c1cc2ccccc2cc1O` when you have a moment?
stdout: No

stdin: Dear colleague, could you share the recorded outcome for `NC(=S)N/N=C\c1nccc2c(C(F)(F)C(F)(F)C(F)(F)F)cccc12` when you have a moment?
stdout: Yes

Where do these numbers come from? They come from PubChem BioAssay (NCI).
